measured.on: h-jak3(810-1124) (JAK3: Recombinant human kinase domain) (Homo sapiens, UniProt P52333)
Construct: jak3(810- 1124)-sf9-c
Sequence (P52333 810-1124): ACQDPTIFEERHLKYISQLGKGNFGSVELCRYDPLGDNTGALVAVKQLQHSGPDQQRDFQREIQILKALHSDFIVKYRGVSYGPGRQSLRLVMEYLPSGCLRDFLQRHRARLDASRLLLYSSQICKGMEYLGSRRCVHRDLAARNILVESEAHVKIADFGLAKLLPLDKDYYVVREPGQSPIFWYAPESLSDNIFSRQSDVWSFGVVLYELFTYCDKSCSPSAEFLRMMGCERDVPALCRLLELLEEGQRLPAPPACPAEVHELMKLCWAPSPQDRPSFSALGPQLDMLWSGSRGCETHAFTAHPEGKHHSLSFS
assay.protocol: Determination of IC50 of Janus Kinase (JAK) inhibition: JAK3 radioactive end-point 33P-ATP kinase assay
experimental.conditions: no additive; ATP 1.5 uM, peptide 50 uM, 20 minutes, room temperature; read-out: Ic50 h-jak3(810-1124)-sf9-c: no additive
pIC50: −log10 of the molar value.
Label t when pIC50 is at or above 8; anything below gets f.

Qu. Tell me whether pIC50 is at least 8 here: CC(C)(C)[C@@H](NC(=O)c1c[nH]c2ncc(C3CC3)nc12)C(=O)N1CCCC1 [Example I-10]
Ans. t

Qu. In plain terms: is recorded pIC50 at least 8 for Cn1cc(-c2cnc3[nH]cc(C(=O)N[C@@H](C(=O)N4CC(C#N)C4)C(C)(C)C)c3n2)cn1 [Example I-53] ?
Ans. f

Qu. Determine whether measured pIC50 meets or exceeds 8 for CCn1cc(-c2cnc3[nH]cc(C(=O)N[C@@H](C(=O)N4CCC(F)(F)CC4)C4CC4)c3n2)cn1 [Example I-144]
Ans. t

Qu. Decide: is the reported value of pIC50 for C[C@@H](NC(=O)c1c[nH]c2ncc(-c3cccc(N4CCC(C)(C)C4)c3)nc12)C(=O)N1CC(C#N)C1 [Example I-123] equal to or greater than 8?
Ans. t

Qu. // inclusive: pIC50 at least 8? input: Cn1cc(-c2cnc3[nH]cc(C(=O)N[C@@H](C(=O)N4CC(F)(F)C4)C4CC4)c3n2)cn1 [Example I-150]
Ans. t

Qu. Please indicate if the recorded pIC50 for O=C(NC(C(=O)N1CCCC1)C(F)(F)F)c1c[nH]c2ncc(C3CC3)nc12 (stereo not drawn) [Example I-19] meets or exceeds 8.
Ans. f

Qu. Please check the record COc1ccnc(-c2cnc3[nH]cc(C(=O)N[C@@H](C(=O)N4CCC(C#N)CC4)C(C)(C)C)c3n2)c1 [Example I-127] and state if its pIC50 is at or above 8.
Ans. t

Qu. Kindly determine if pIC50 recorded for CC(C)(C)[C@@H](NC(=O)c1c[nH]c2ncc(-c3cn(CC4CC4)cn3)nc12)C(=O)N1CCC(C#N)CC1 [Example I-119] is above or exactly 8.
Ans. t

Qu. Determine whether measured pIC50 meets or exceeds 8 for CC1CCN(C(=O)[C@@H](C)NC(=O)c2c[nH]c3ncc(C4CC4)nc23)C1 (stereo partly drawn) [Example I-15]
Ans. f

Qu. Given Cn1cc(-c2cnc3[nH]cc(C(=O)N[C@@H](C(=O)N4CCC(C#N)CC4)C(C)(C)C)c3n2)cn1 [Example I-55] , state whether its pIC50 is at least 8.
Ans. t

Qu. Is the recorded value of pIC50 equal to or greater than 8 for this compound? Cn1cnc(-c2cnc3[nH]cc(C(=O)N[C@@H](C(=O)N4CCC(C#N)CC4)C(C)(C)C)c3n2)c1 [Example I-77]
Ans. t

Qu. Does CC(C)(C)[C@@H](NC(=O)c1c[nH]c2ncc(C3CC3)nc12)C(=O)N1CC[C@@H](C#N)C1 [Example I-31] have a reported pIC50 of at least 8?
Ans. t
